- Test system: A549
- PROTOCOL_DETAILS: cells
- Format: functional, cell-based
- CONDITION_PARAMETERS: Homo sapiens, A549, 48 h
- Description: Antiproliferative activity against human A549 cells assessed as viable cells after 48 hrs by CCK8 assay
pIC50: −log10 of the molar value.
ENDPOINT_LABEL: pIC50

TEST_SMILES	pIC50
C#Cc1cccc(Nc2ncnc3cc4c(cc23)N(CCCN2CCOCC2)C(=O)CO4)c1	5.25
O=C1COc2cc3ncnc(Nc4ccc(F)c(Cl)c4)c3cc2N1CCCN1CCOCC1	5.12

* * *

- TARGET_OR_SYSTEM: Epidermal growth factor receptor (Homo sapiens, UniProt P00533);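 also: Wild-type enzyme, compound preincubation 30 min, then ATP and substrate added, activity read after 1 h as luminescence with Kinase-Glo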
- Sequence (P00533 whole entry): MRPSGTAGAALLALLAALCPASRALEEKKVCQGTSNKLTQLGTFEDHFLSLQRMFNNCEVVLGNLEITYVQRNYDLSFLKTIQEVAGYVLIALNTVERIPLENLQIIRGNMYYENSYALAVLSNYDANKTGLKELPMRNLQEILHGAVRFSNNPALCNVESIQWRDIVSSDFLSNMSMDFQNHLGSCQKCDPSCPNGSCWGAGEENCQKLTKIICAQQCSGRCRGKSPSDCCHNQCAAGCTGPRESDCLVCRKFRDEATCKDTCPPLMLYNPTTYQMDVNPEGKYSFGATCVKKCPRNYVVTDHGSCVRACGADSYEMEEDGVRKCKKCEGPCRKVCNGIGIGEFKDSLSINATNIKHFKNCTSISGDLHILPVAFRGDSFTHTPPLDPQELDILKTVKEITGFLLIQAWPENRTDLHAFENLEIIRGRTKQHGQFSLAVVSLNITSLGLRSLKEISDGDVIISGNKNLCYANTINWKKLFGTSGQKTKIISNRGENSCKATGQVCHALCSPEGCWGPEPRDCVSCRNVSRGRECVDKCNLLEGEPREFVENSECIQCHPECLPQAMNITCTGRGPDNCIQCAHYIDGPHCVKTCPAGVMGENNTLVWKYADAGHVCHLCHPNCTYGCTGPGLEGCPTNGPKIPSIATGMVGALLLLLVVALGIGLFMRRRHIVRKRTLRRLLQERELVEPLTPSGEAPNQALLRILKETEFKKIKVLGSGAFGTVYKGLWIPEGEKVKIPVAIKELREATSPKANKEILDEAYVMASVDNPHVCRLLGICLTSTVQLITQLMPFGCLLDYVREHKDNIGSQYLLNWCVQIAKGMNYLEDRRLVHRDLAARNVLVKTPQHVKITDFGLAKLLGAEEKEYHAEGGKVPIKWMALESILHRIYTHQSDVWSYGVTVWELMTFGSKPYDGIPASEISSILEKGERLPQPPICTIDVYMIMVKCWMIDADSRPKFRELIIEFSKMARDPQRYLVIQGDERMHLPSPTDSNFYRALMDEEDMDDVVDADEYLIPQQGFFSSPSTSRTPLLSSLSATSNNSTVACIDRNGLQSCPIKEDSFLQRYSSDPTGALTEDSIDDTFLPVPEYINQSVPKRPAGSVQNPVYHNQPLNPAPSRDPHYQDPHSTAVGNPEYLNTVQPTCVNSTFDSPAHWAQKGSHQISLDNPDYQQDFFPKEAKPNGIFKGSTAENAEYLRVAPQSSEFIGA
ENDPOINT_LABEL: IC50 (nM)

Please review the following examples before continuing.
TEST_SMILES	IC50, nM
O=C1COc2cc3ncnc(Nc4cccc(Cl)c4)c3cc2N1CCCN1CCOCC1	63.1
O=C1COc2cc3ncnc(Nc4ccc(F)cc4)c3cc2N1CCCN1CCOCC1	434
O=C1COc2cc3ncnc(Nc4ccc(Br)cc4)c3cc2N1CCCN1CCOCC1	824
O=C1COc2cc3ncnc(Nc4cccc(Br)c4)c3cc2N1CCCN1CCOCC1	89.6

P = Cc1cccc(Nc2ncnc3cc4c(cc23)N(CCCN2CCCCC2)C(=O)CO4)c1
Q = O=C1COc2cc3ncnc(Nc4cccc(Br)c4)c3cc2N1CCCN1CCCCC1
R = O=C1COc2cc3ncnc(Nc4cccc(F)c4)c3cc2N1CCCN1CCOCC1
Order the items by recorded IC50; the first position goes to the largest value. Please respond by ranking the labels in the order requested.
P, R, Q

I = O=C1COc2cc3ncnc(Nc4ccc(F)c(Cl)c4)c3cc2N1CCCN1CCCCC1
II = O=C1COc2cc3ncnc(Nc4ccc(F)c(Cl)c4)c3cc2N1CCCN1CCOCC1
Lab notebook, comparison: I versus II , higher IC50 goes to which? Provide the label of your selected option as the answer.
I
(I: 138 nM, II: 53.1 nM)

1 = O=C1COc2cc3ncnc(Nc4cccc(Cl)c4)c3cc2N1CCCN1CCCCC1
2 = Cc1ccc(Nc2ncnc3cc4c(cc23)N(CCCN2CCOCC2)C(=O)CO4)cc1
Please let me know which one, 1 or 2 , has a lower measured IC50 value. To answer, give the label that identifies your chosen option.
1
